The origin of these recorded values is ChEMBL document CHEMBL1131643.

Assay Target: UniProt P31213
Sequence (P31213 whole entry): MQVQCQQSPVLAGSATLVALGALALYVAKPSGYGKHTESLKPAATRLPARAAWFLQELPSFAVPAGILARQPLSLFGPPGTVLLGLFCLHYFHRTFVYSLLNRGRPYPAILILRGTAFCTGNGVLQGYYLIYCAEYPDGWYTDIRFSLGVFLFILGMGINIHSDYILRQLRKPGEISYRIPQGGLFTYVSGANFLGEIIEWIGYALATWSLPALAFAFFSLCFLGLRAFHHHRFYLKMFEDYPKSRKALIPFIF
Assay: In vitro inhibitory activity against human Steroid 5-alpha-reductase type 2 in COS-1 cells was determined
Format: cell-based
pIC50 by entry:
The read-out pIC50 is expressed as -log10 of concentration in moles per litre.

Solved cases below.
# Entry Smiles, Reported Measurement
rows = [
    ("COc1ccc(C(NC(=O)c2ccc3cc(-c4ccccc4OCCCC(=O)O)oc3c2)c2ccc(OC)cc2)cc1", 6.03),
    ("O=C(O)CCCOc1ccccc1-c1cc2ccc(C(=O)NC(c3ccc(F)cc3)c3ccc(F)cc3)cc2o1", 6.47),
    ("CC(C)Cc1ccc(C(Nc2cccc(C(=O)c3cn(CCCC(=O)O)c4ccccc34)c2)c2ccc(CC(C)C)cc2)cc1", 7.96),
]

Now examine the next entry.
If you can, please state the reported pIC50 value of O=C(O)CCCOc1ccccc1-c1cc2ccc(C(=O)NC(c3ccccc3)c3ccccc3)cc2o1 .
6.57
